# Test system: YAP/TAZ
# procedure_summary: Screening: YAP/TAZ activity reporter (8xGTIIC plasmid) assay in NUGC3 cells (luminescence % of DMSO)
# Assay type: cell-based, human
# setup_conditions: YAP/TAZ activity reporter (8×GTIIC), NUGC3 cells, luminescence relative to DMSO; concentration not given
Classification field: TRUE = 8×GTIIC at or over 60%; FALSE = 8×GTIIC under 60%.

Cc1cc(C)c(C)c(S(=O)(=O)CC2CCC(S(C)(=O)=O)CC2)c1C (stereo not drawn) [SA093]
FALSE

Prompt: Please indicate if the recorded 8×GTIIC for CCS(=O)(=O)C1CCC(CS(=O)(=O)c2ccc(C)cc2)CC1 (stereo not drawn) [SA044] meets or exceeds 60%.
Response: TRUE

Prompt: Does 8×GTIIC meet or surpass 60% for CCCc1cc(C)c(C(C)C)cc1S(=O)(=O)CC1CC(C)(C)CC(C)(C)C1 [SA003] ?
Response: FALSE

Prompt: Does 8×GTIIC meet or surpass 60% for CCc1cc(C)c(S(=O)(=O)CC2CC(C)(C)CC(C)(C)C2)cc1C [SA010] ?
Response: TRUE

Prompt: Please tell me: is the compound O=S(=O)(CCc1ccccc1)c1ccc(-c2ccccc2)cc1 [PVZF2032] at or over 60% in terms of 8×GTIIC?
Response: TRUE
